Reference source for all entries: PubChem BioAssay AID431

# EXPERIMENT_SUMMARY: viability loss of HPDE-C7K cells – cell-based, fluorescence, HTS, primary screen (AID 431);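 also: 0% = DMSO solvent wells and 100% = doxorubicin-treated wells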
# APPLIED_CONDITIONS: HPDE-C7K KRASV12 cells, Alamar Blue viability, 48 h; at 10 µM; stronger effect = higher value
In all, about 63,000 compounds went through this assay and about 1,100 (1.7%) were called active. For the sample, actives were picked, then their nearest neighbours and some compounds at random. Measured potencies and affinities stand elsewhere.
READOUT_TYPE: cytotoxicity (%)

{"MOLECULE": "CC(C)(C)c1ccc(Cn2nnc3c(=O)[nH]c(C4CCN(C(=O)Cc5cccs5)CC4)nc32)cc1", "READOUT_TYPE": "cytotoxicity", "OBS_VALUE": 8.5}
{"MOLECULE": "COC(=O)C1=C(C)N(c2cccc(Cl)c2)C(=O)C1", "READOUT_TYPE": "cytotoxicity", "OBS_VALUE": -6.2}
{"MOLECULE": "Cn1c(=O)n(C)c2cc(NC(=O)CSc3nnc(-c4ccccc4O)n3-c3ccccc3)ccc21", "READOUT_TYPE": "cytotoxicity", "OBS_VALUE": 12.8}
{"MOLECULE": "CCOC(=O)c1c(C)n(CC(O)c2ccccc2)c2ccc(O)cc12 (stereo unspecified)", "READOUT_TYPE": "cytotoxicity", "OBS_VALUE": -7.5}
{"MOLECULE": "O=C(Nc1ccc(N2CCOCC2)cc1)c1ccc2nc(-c3ccco3)c(-c3ccco3)nc2c1", "READOUT_TYPE": "cytotoxicity", "OBS_VALUE": -26.4}
{"MOLECULE": "COc1cccc(N2CC(O)Cn3c2nc2c3c(=O)n(CCCc3ccccc3)c(=O)n2C)c1 (stereo unspecified)", "READOUT_TYPE": "cytotoxicity", "OBS_VALUE": 7.7}
{"MOLECULE": "COc1ccc(N2CCN(C(=O)c3ccc4c(c3)OCO4)CC2)cc1", "READOUT_TYPE": "cytotoxicity", "OBS_VALUE": 17}
{"MOLECULE": "CCOc1ccc(C)cc1S(=O)(=O)N1CCCCC1", "READOUT_TYPE": "cytotoxicity", "OBS_VALUE": 7.7}
{"MOLECULE": "Cc1cnc(NC(=O)c2c(O)c3cccc4c3n(c2=O)CCC4)s1", "READOUT_TYPE": "cytotoxicity", "OBS_VALUE": 91.8}
{"MOLECULE": "O=C(Nc1ccc(N2CCOCC2)cc1)Nc1ccc2nc(-c3ccco3)c(-c3ccco3)nc2c1", "READOUT_TYPE": "cytotoxicity", "OBS_VALUE": 80.3}
{"MOLECULE": "CCCc1nnc(NC(=O)c2c(O)c3cccc4c3n(c2=O)CC4)s1", "READOUT_TYPE": "cytotoxicity", "OBS_VALUE": 43.6}
{"MOLECULE": "CCCC(=O)Nc1cc(-c2nn(C)c(=O)c3ccccc23)ccc1N1CCCCC1", "READOUT_TYPE": "cytotoxicity", "OBS_VALUE": -4.5}
{"MOLECULE": "Cc1csc(NC(=O)c2c(O)c3cccc4c3n(c2=O)CCC4)n1", "READOUT_TYPE": "cytotoxicity", "OBS_VALUE": -16.1}
{"MOLECULE": "CCc1nnc(NC(=O)c2cccc(C(=O)Nc3nnc(CC)s3)n2)s1", "READOUT_TYPE": "cytotoxicity", "OBS_VALUE": 53.1}
{"MOLECULE": "Cc1ccc(-c2csc3nc(C)n(-n4cccc4)c(=O)c23)o1", "READOUT_TYPE": "cytotoxicity", "OBS_VALUE": 0.5}
{"MOLECULE": "CCOc1ccc(NS(=O)(=O)c2ccc(SC)cc2)cc1", "READOUT_TYPE": "cytotoxicity", "OBS_VALUE": 8.6}
{"MOLECULE": "CCOc1ccc(NS(=O)(=O)c2ccc3[nH]c(=O)oc3c2)cc1", "READOUT_TYPE": "cytotoxicity", "OBS_VALUE": 11.8}
{"MOLECULE": "CCc1nnc(NC(=O)c2c(O)c3cccc4c3n(c2=O)CC4)s1", "READOUT_TYPE": "cytotoxicity", "OBS_VALUE": 50}
{"MOLECULE": "CC(C)c1nnc(NC(=O)c2c(O)c3cccc4c3n(c2=O)CCC4)s1", "READOUT_TYPE": "cytotoxicity", "OBS_VALUE": 49.4}
{"MOLECULE": "CCN(CC)CCCN1C(=O)C(=O)/C(=C(/O)c2ccc3c(c2)OCCO3)C1c1ccco1 (stereo unspecified)", "READOUT_TYPE": "cytotoxicity", "OBS_VALUE": 5.8}
{"MOLECULE": "CCC(=O)Nc1cc(-c2nn(C)c(=O)c3ccccc23)ccc1N1CCCCC1", "READOUT_TYPE": "cytotoxicity", "OBS_VALUE": 2}

* * *

Below, each entry is listed alongside its reported cytotoxicity.
# EXPERIMENT_SUMMARY: viability loss of HPDE-C7K cells – cell-based, fluorescence, HTS, primary screen (AID 431);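 also: 0% = DMSO solvent wells and 100% = doxorubicin-treated wells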
# APPLIED_CONDITIONS: HPDE-C7K KRASV12 cells, Alamar Blue viability, 48 h; at 10 µM; stronger effect = higher value
In all, about 63,000 compounds went through this assay and about 1,100 (1.7%) were called active. The full list was thinned out, with actives kept by preference. Entries with a potency or affinity are not part of this list.

{"COMPOUND": "CCOC(=O)c1ccccc1NC(=O)c1ccccc1SC", "cytotoxicity (%)": 21.6}
{"COMPOUND": "CCOc1ccccc1NC(=O)CN(c1ccc(OC)cc1)S(=O)(=O)c1c(C)noc1C", "cytotoxicity (%)": 52.8}
{"COMPOUND": "Cc1ccc(C2N(c3cccc(Cl)c3)C(=O)C3CCCN32)o1 (stereo not given)", "cytotoxicity (%)": -0.1}
{"COMPOUND": "COc1ccc(OC)c(NC(=O)CN(c2ccc(C)cc2)S(=O)(=O)c2c(C)noc2C)c1", "cytotoxicity (%)": 1.7}
{"COMPOUND": "CC1(C)Cc2c(C#N)c(NCCN3CCOCC3)nc(-c3ccco3)c2CO1", "cytotoxicity (%)": 8.7}
{"COMPOUND": "c1nc(NCCN2CCOCC2)c2sc3nc(N4CCOCC4)c4c(c3c2n1)CCC4", "cytotoxicity (%)": 18.4}
{"COMPOUND": "CCOC(=O)C1C(=O)CC(C)(O)C(C(=O)OCC)C1c1ccco1 (stereo not given)", "cytotoxicity (%)": 1.3}
{"COMPOUND": "COc1ccc(N(CC(=O)Nc2cc(Cl)ccc2OC)S(=O)(=O)c2c(C)noc2C)cc1", "cytotoxicity (%)": 77.1}
{"COMPOUND": "Cc1n[nH]c(C)c1C(=O)CC1(O)C(=O)N(CCc2ccccc2)c2ccc(Cl)cc21 (stereo not given)", "cytotoxicity (%)": 16.8}
{"COMPOUND": "COc1ccc(N(CC(=O)Nc2cc(C)ccc2OC)S(=O)(=O)c2c(C)noc2C)cc1", "cytotoxicity (%)": 9.5}

* * *

# EXPERIMENT_SUMMARY: viability loss of HPDE-C7K cells – cell-based, fluorescence, HTS, primary screen (AID 431);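 also: 0% = DMSO solvent wells and 100% = doxorubicin-treated wells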
# APPLIED_CONDITIONS: HPDE-C7K KRASV12 cells, Alamar Blue viability, 48 h; at 10 µM; stronger effect = higher value
The campaign covered roughly 63,000 compounds. About 1,100 (1.7%) were called active. This excerpt belongs to a sample that is enriched for actives. Entries with a potency or affinity are not part of this list.

{"COMPOUND": "CCOC(=O)c1cnc(-n2nc(C)cc2C)nc1NC(C)c1ccccc1 (stereo unspecified)", "cytotoxicity, %": -13}
{"COMPOUND": "c1ccc2c(c1)nc(Nc1ccc3c(c1)OCO3)c1nnnn12", "cytotoxicity, %": -10.2}
{"COMPOUND": "COC(=O)C1=C(C)N(c2ccc(F)c(Cl)c2)C(=O)C1", "cytotoxicity, %": 0.2}
{"COMPOUND": "COCCNC(=O)CN1CCOc2ccccc21", "cytotoxicity, %": -4.3}
{"COMPOUND": "CCN(CC(=O)Nc1ccc2c(c1)OCCO2)Cc1cc(=O)oc2c(C)c(C)ccc12", "cytotoxicity, %": 9.3}
{"COMPOUND": "Cc1ccc(OCC(=O)NCCO)cc1C", "cytotoxicity, %": 9.8}
{"COMPOUND": "COc1cc2c(cc1NC(=O)CCCN1C(=O)CCC1=O)oc1ccccc12", "cytotoxicity, %": 15.2}
{"COMPOUND": "Cc1[nH]nc2c1C(C(C)C)C(C#N)=C(N)O2 (stereo unspecified)", "cytotoxicity, %": 7.9}
{"COMPOUND": "COc1ccc(Oc2c(C)oc3cc(OC(=O)N4CCOCC4)ccc3c2=O)cc1", "cytotoxicity, %": -5}
{"COMPOUND": "Cn1cc(S(=O)(=O)CC(=O)N2CCc3ccccc32)c2ccccc21", "cytotoxicity, %": 26.9}
{"COMPOUND": "COc1ccc(N2CCN(C(=O)c3cc4c(-c5cccc(OC)c5)nn(C)c4s3)CC2)cc1", "cytotoxicity, %": 15.7}
